tested on: S. aureus; assay: Minimal Inhibitory Concentration (MIC) determination, 96 well plates; assay type: cell-based, Staphylococcus aureus; conditions: Staphylococcus aureus; HBI medium, 16 to 18 hours at 37°C; read-out: MIC (µg/ml) S. aureus
Please assign false (0) whenever MIC is at or above 1 µg/mL, and true (1) whenever it is below.

Take a look at these entries with their results.
1. Cc1ccc(Nc2cc(=O)n(CCCCN3CCN(c4c(F)cc5c(=O)c(C(=O)O)cn(C6CC6)c5c4F)C[C@H]3C)c(=O)[nH]2)cc1C [Compound 98] ... false (0)
2. CCc1cc(Nc2cc(=O)n(CCCCN3CCN(c4c(F)cc5c(=O)c(C(=O)O)cn(C6CC6)c5c4F)C[C@H]3C)c(=O)[nH]2)ccc1C [Compound 72] ... true (1)
3. Cc1ccc(Nc2cc(=O)n(CCCCN3CCN(c4c(F)cc5c(=O)c(C(=O)O)cn(C6CC6)c5c4F)CC3)c(=O)[nH]2)cc1C [Compound 101] ... true (1)
4. CCc1cc(Nc2cc(=O)n(CCCCN3CCOC4CN(c5cc6c(cc5F)c(=O)c(C(=O)O)cn6C5CC5)CC43)c(=O)[nH]2)ccc1C (stereo not shown) [Compound 87] ... false (0)

stdin: Dear colleague, could you confirm whether MIC of CCc1cc(Nc2cc(=O)n(CCCCN3CCN(c4c(F)cc5c(=O)c(C(=O)O)cn(CC)c5c4Cl)CC3)c(=O)[nH]2)ccc1C [Compound 5] falls below 1 µg/mL? Thanks.
stdout: true (1)

stdin: And CCc1cc(Nc2cc(=O)n(CCCCN3CCN(c4c(F)cc5c(=O)c(C(=O)O)cn(C6CC6)c5c4F)CC3CO)c(=O)[nH]2)ccc1C (stereo not shown) [Compound 91] ?
stdout: false (0)

stdin: And Cc1ccc(Nc2cc(=O)n(CCCCN3CCN(c4cc5c(cc4F)c(=O)c(C(=O)O)cn5C4CC4)CC3)c(=O)[nH]2)cc1C [Compound 65] ?
stdout: true (1)

stdin: And CCc1cc(Nc2cc(=O)n(CCCCCN3CCCC4CN(c5cc6c(cc5F)c(=O)c(C(=O)O)cn6CC)CC43)c(=O)[nH]2)ccc1C (stereo not shown) [Compound 80] ?
stdout: false (0)

stdin: And CCc1cc(Nc2cc(=O)n(CCCCCN3CCC4CN(c5cc6c(cc5F)c(=O)c(C(=O)O)cn6C5CC5)CC43)c(=O)[nH]2)ccc1C (stereo not shown) [Compound 81] ?
stdout: false (0)

###

tested on: S. aureus; assay: Minimal Inhibitory Concentration (MIC) determination, 96 well plates; type: cell-based, Staphylococcus aureus; settings: Staphylococcus aureus; HBI medium, 16 to 18 hours at 37°C; read-out: MIC (µg/ml) S. aureus
So I've got a bunch of molecules here, and I need their MIC values.
Answers are plain numbers, in µg/mL.

Take a look at these entries with their results.
1) O=C(O)c1cn(C2CC2)c2cc(N3CCN(CCCCn4c(=O)cc(NCc5ccc(Cl)c(Cl)c5)[nH]c4=O)CC3)c(F)cc2c1=O ... 1.25
2) CCc1cc(Nc2cc(=O)n(CCCCN3CCN(c4cc5c(cc4F)c(=O)c(C(=O)O)cn5C4CC4)CC3)c(=O)[nH]2)ccc1C.CS(=O)(=O)O ... 0.625
3) CCc1cc(Nc2cc(=O)n(CCCCN3CCN(c4cc5c(cc4F)c(=O)c(C(=O)O)cn5C4CC4)C(C)C3)c(=O)[nH]2)ccc1C (stereo not drawn) ... 0.625
4) CCc1cc(Nc2cc(=O)n(CCCCN3CCN(c4ncc5c(=O)c(C(=O)O)cn(CC)c5n4)CC3)c(=O)[nH]2)ccc1C ... 1.25
5) CCc1cc(Nc2cc(=O)n(CCCCN3CCN(c4c(F)cc5c(=O)c(C(=O)O)cn(C6CC6)c5c4F)CC3C)c(=O)[nH]2)ccc1C (stereo not drawn) ... 0.313

stdin: Please report the recorded MIC for `CCc1cccc(Nc2cc(=O)n(CCCCN3CCN(c4cc5c(cc4F)c(=O)c(C(=O)O)cn5C4CC4)CC3)c(=O)[nH]2)c1` .
stdout: 0.95

###

test system: B. subtilis; assay: Minimal Inhibitory Concentration (MIC) determination, 96 well plates; format: cell-based, Bacillus subtilis; settings: Bacillus subtilis; HBI medium, 16 to 18 hours at 37°C; read-out: MIC (µg/ml) B. subtilis
So I've got a bunch of compounds here, and I need their MIC values.
Numbers only, in µg/mL.

1. Cc1ccc(Nc2cc(=O)n(CCCCN3CCN(c4cc5c(cc4F)c(=O)c(C(=O)O)cn5C4CC4)C[C@@H]3C)c(=O)[nH]2)cc1C [Compound 97] ... 0.235
2. CCc1cc(Nc2cc(=O)n(CCCCCN3CCOC4CN(c5cc6c(cc5F)c(=O)c(C(=O)O)cn6C5CC5)CC43)c(=O)[nH]2)ccc1C (stereo not drawn) [Compound 84] ... 0.313

stdin: Please report the recorded MIC for Cc1ccc(Nc2cc(=O)n(CCCCN3CCN(c4cc5c(cc4F)c(=O)c(C(=O)O)cn5C4CC4)C[C@H]3C)c(=O)[nH]2)cc1C [Compound 96] .
stdout: 0.156

###

test system: MRSA 1123; assay: MIC against clinically relevant strains; format: cell-based; conditions: Staphylococcus aureus, methicillin resistant S. aureus strain
Measurement Type: MIC
Answer format reminder: number followed by unit.

1. CCc1cc(Nc2cc(=O)n(CCCCN3CCN(c4cc5c(cc4F)c(=O)c(C(=O)O)cn5-c4ccc(F)cc4F)CC3)c(=O)[nH]2)ccc1C [Compound 12] ... 1.25 µg/mL
2. CCc1cc(Nc2cc(=O)n(CCCCN3CCN(c4cc5c(cc4F)c(=O)c(C(=O)O)cn5C4CC4)CC3)c(=O)[nH]2)ccc1C.CS(=O)(=O)O [Compound 10] ... 1.25 µg/mL
3. CCc1cc(Nc2cc(=O)n(CCCCN3CCN(c4nc5c(cc4F)c(=O)c(C(=O)O)cn5CC)CC3)c(=O)[nH]2)ccc1C [Compound 6] ... 0.625 µg/mL
4. CCc1cc(Nc2cc(=O)n(CCCCN3CCN(c4cc5c(cc4F)c(=O)c(C(=O)O)cn5C4CC4)CC3)c(=O)[nH]2)ccc1C [Compound 2] ... 0.625 µg/mL
5. CCc1cc(Nc2cc(=O)n(CCCCN3CCN(c4c(F)cc5c(=O)c(C(=O)O)cn(CC)c5c4Cl)CC3)c(=O)[nH]2)ccc1C [Compound 5] ... 0.625 µg/mL

For each of the compounds below, state MIC.
1. CCc1cc(Nc2cc(=O)n(CCCCN3CCN(c4c(F)cc5c(=O)c(C(=O)O)cn(C6CC6)c5c4F)CC3C)c(=O)[nH]2)ccc1C (stereo not shown) [Compound 70]
2. CCc1cc(Nc2cc(=O)n(CCCCN3CCN(c4c(F)cc5c(=O)c(C(=O)O)cn(CC)c5c4F)CC3)c(=O)[nH]2)ccc1C [Compound 7]

stdout:
1: 0.94 µg/mL; 2: 0.625 µg/mL

###

So I've got a bunch of compounds here, and I need their MIC values.
system: E. coli; assay: Minimal Inhibitory Concentration (MIC) determination, 96 well plates; format: cell-based, Escherichia coli; conditions: Escherichia coli; HBI medium, 16 to 18 hours at 37°C; read-out: MIC (µg/ml) E. coli

1) CCc1cc(Nc2cc(=O)n(CCCCN3CCN(c4c(F)cc5c(=O)c(C(=O)O)cn(C6CC6)c5c4F)CC3C)c(=O)[nH]2)ccc1C (stereo not drawn) ... > 80 µg/mL

For each of the compounds below, state MIC.
1. CCc1cc(Nc2cc(=O)n(CCCCN3CCN(c4cc5c(cc4F)c(=O)c(C(=O)O)cn5-c4ccc(F)cc4F)C[C@H]3C)c(=O)[nH]2)ccc1C
2. CCc1cccc(Nc2cc(=O)n(CCCCN3CCN(c4cc5c(cc4F)c(=O)c(C(=O)O)cn5C4CC4)CC3)c(=O)[nH]2)c1

stdout:
> 40 µg/mL
6.1 µg/mL

###

system: E. coli; test: Minimal Inhibitory Concentration (MIC) determination, 96 well plates; assay type: cell-based, Escherichia coli; details: Escherichia coli; HBI medium, 16 to 18 hours at 37°C; read-out: MIC (µg/ml) E. coli
So I've got a bunch of compounds here, and I need their MIC values.

Take a look at these entries with their results.
1) CCc1cc(Nc2ccc(CCCCN3CCN(c4cc5c(cc4F)c(=O)c(C(=O)O)cn5CC)CC3)c(=O)[nH]2)ccc1C ... > 80 µg/mL
2) CCc1cc(Nc2cc(=O)n(CCCCN3CCN(c4ncc5c(=O)c(C(=O)O)cn(CC)c5n4)CC3)c(=O)[nH]2)ccc1C ... > 80 µg/mL

Shifting focus to the compound that follows.
stdin: Please report the recorded MIC for CCc1cc(Nc2cc(=O)n(CCCCCN3CCOC4CN(c5c(F)cc6c(=O)c(C(=O)O)cn(CC)c6c5F)CC43)c(=O)[nH]2)ccc1C (stereo not drawn) .
stdout: > 80 µg/mL
